measured_on: purified class A, C and D enzymes (Enterobacter cloacae)
Type: biochemical
condition_label: purified P99/AmpC of ECL; nitrocefin reporter substrate
metric_name: Ki (P99/AmpC of ECL, NCF)

> print(dat)
                                   compound          data.value
1  O=C(O)c1c(F)ccc2c1OB(O)[C@@H](Sc1nnc(C(F)(F)F)s1)C2 [Compound 55]  Y (0.1 μM to 1 μM)
2  COc1ccc2c(c1C(=O)O)OB(O)[C@@H](Sc1nnc(SCCN3CCNCC3)s1)C2 [Compound 68]  Y (0.1 μM to 1 μM)
3  COc1ccc2c(c1C(=O)O)OB(O)[C@@H](Sc1nnc(OCCN)s1)C2 [Compound 117]  Y (0.1 μM to 1 μM)

* * *

measured_on: NDM-1 (Klebsiella pneumoniae, UniProt C7C422)
Sequence (C7C422 29-270, looked up, species assumed): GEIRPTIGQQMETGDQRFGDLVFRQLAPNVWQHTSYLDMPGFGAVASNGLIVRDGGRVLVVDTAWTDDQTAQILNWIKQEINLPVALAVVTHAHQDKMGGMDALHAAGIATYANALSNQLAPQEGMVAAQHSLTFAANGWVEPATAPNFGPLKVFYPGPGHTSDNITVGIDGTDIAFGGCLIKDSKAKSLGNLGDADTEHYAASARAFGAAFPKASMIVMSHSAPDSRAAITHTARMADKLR
test_summary: Inhibition of purified class B carbapenemase NDM-1 (Ki, imipenem substrate)
Assay type: biochemical
condition_label: NDM-1, substrate imipenem; read-out: Ki NDM-1, Imipenem
metric_name: Ki

// for each compound in input: emit Ki
1. NC(=O)c1csc(S[C@H]2Cc3ccc(F)c(C(=O)O)c3OB2O)n1
2. O=C(O)c1cccc2c1OB(O)[C@@H](Sc1nnc(NC3CNC3)s1)C2
3. COc1ccc2c(c1C(=O)O)OB(O)[C@@H](Sc1ncns1)C2
4. COc1ccc2c(c1C(=O)O)OB(O)[C@@H](Sc1c[nH]nn1)C2
5. N#CCS[C@H]1Cc2ccc(F)c(C(=O)O)c2OB1O
6. COc1ccc2c(c1C(=O)O)OB(O)[C@@H](Sc1ncn(CCCC(=O)O)n1)C2
7. CSc1ccc2c(c1C(=O)O)OB(O)[C@@H](Sc1nnc(N)s1)C2

Return:
1: > 100 nM; 2: < 10 nM; 3: > 100 nM; 4: > 100 nM; 5: > 100 nM; 6: > 100 nM; 7: 10 to 100 nM

* * *

measured_on: purified class A, C and D enzymes (Enterobacter cloacae, UniProt P05364)
Sequence (P05364 21-381): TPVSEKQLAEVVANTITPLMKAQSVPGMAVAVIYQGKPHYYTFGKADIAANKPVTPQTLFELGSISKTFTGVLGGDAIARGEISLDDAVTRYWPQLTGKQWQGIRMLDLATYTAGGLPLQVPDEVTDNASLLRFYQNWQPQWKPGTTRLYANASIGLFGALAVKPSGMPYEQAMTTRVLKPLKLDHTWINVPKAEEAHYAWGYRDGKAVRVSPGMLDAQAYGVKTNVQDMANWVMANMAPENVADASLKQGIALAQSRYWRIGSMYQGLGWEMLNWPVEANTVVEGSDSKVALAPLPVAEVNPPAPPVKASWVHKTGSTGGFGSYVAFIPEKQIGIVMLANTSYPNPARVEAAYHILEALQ
Format: biochemical
condition_label: purified P99/AmpC of ECL; nitrocefin reporter substrate
metric_name: Ki (P99/AmpC of ECL, NCF)

Illustrative cases are given below, each with its answer.
> print(dat)
                                   compound                metric.name             data.value
1  Nc1nnc(S[C@H]2Cc3ccc(OCC(F)F)c(C(=O)O)c3OB2O)s1  Ki (P99/AmpC of ECL, NCF)  Z (Greater than 1 μM)
2  NC(=O)c1cnc(S[C@H]2Cc3ccc(F)c(C(=O)O)c3OB2O)s1  Ki (P99/AmpC of ECL, NCF)     Y (0.1 μM to 1 μM)
3  O=C(O)c1c(OCC(F)F)ccc2c1OB(O)[C@@H](Sc1nncs1)C2  Ki (P99/AmpC of ECL, NCF)     Y (0.1 μM to 1 μM)
4  COCc1ccc2c(c1C(=O)O)OB(O)[C@@H](Sc1nnc(N)s1)C2  Ki (P99/AmpC of ECL, NCF)     Y (0.1 μM to 1 μM)
5  NCc1cnc(S[C@H]2Cc3ccc(F)c(C(=O)O)c3OB2O)s1  Ki (P99/AmpC of ECL, NCF)  Z (Greater than 1 μM)

// for each compound in input: emit Ki (P99/AmpC of ECL, NCF)
1. COc1ccc2c(c1C(=O)O)OB(O)[C@@H](Sc1nnc(NCCNC3CNC3)s1)C2
2. CSc1ccc2c(c1C(=O)O)OB(O)[C@@H](Sc1nnc(N)s1)C2
3. COc1cc(OC)c(C(=O)O)c2c1C[C@H](Sc1nnc(N)s1)B(O)O2
4. Nc1nnc(S[C@H]2Cc3cc(F)c(F)c(C(=O)O)c3OB2O)s1
5. O=C(O)c1c(OC(F)F)ccc2c1OB(O)[C@@H](Sc1nncs1)C2
6. COc1ccc2c(c1C(=O)O)OB(O)[C@@H](Sc1nnc(SC3CNC3)s1)C2
7. COc1ccc2c(c1C(=O)O)OB(O)[C@@H](Sc1cnns1)C2
8. COc1ccc2c(c1C(=O)O)OB(O)[C@@H](Sc1nnc(NCCCN)s1)C2

Return:
1. Y (0.1 μM to 1 μM)
2. X (Less than 0.1 μM)
3. X (Less than 0.1 μM)
4. Z (Greater than 1 μM)
5. Z (Greater than 1 μM)
6. Y (0.1 μM to 1 μM)
7. Z (Greater than 1 μM)
8. X (Less than 0.1 μM)

* * *

measured_on: VIM-1 (Pseudomonas aeruginosa)
Construct: made in house; host or cells: ECM6711 strain carrying pUCP24-VIM-1 plasmid; culture supernatant used unpurified
test_summary: biochemical
condition_label: cleavage of nitrocefin (200 uM) by VIM-1 supernatant
pIC50: −log10 of the molar value.
metric_name: pIC50

> print(dat)
                                   compound  metric.name  data.value
1  Nc1nnc(S[C@H]2Cc3c(F)c(F)c(F)c(C(=O)O)c3OB2O)s1 [Compound 38]        pIC50      ≤ 6.00

// for each compound in input: emit pIC50
1. COc1ccc2c(c1C(=O)O)OB(O)[C@@H](Sc1nccs1)C2 [Compound 47]
2. COc1ccc2c(c1C(=O)O)OB(O)[C@@H](Sc1nnc[nH]1)C2 [Compound 70]
3. Nc1nnc(S[C@H]2Cc3ccc(O)c(C(=O)O)c3OB2O)s1 [Compound 44]

Return:
["> 6.00", "> 6.00", "> 6.00"]

* * *

measured_on: purified class A, C and D enzymes (UniProt P0AD64, L31Q/G234S/E235K, species not given)
Construct: Ki (SHV-12, NCF); other: purified SHV-12; nitrocefin reporter substrate
condition_label: read-out: Ki (SHV-12, NCF); purified SHV-12; nitrocefin reporter substrate
metric_name: Ki

> print(dat)
                                 smiles.str  metric.name      data.value
1  Cn1ncc(C(N)=O)c1S[C@H]1Cc2ccc(F)c(C(=O)O)c2OB1O           Ki  100 to 1000 nM

// for each compound in input: emit Ki
1. Nc1nnc(S[C@H]2Cc3ccc(F)c(C(=O)O)c3OB2O)s1
2. COc1c(F)cc2c(c1C(=O)O)OB(O)[C@@H](Sc1nnc(N)s1)C2
3. O=C(O)c1c(F)ccc2c1OB(O)[C@@H](Sc1nnc(C(F)(F)F)s1)C2
4. COc1ccc2c(c1C(=O)O)OB(O)[C@@H](Sc1nnc(CN3CCNCC3)n1N)C2

Return:
["< 100 nM", "< 100 nM", "100 to 1000 nM", "< 100 nM"]

* * *

Answer each item with its documented Ki.
measured_on: purified class A, C and D enzymes (UniProt Q9F663)
Construct: rows headed: Ki (KPC-2, NCF); other: purified KPC-2; nitrocefin reporter substrate
condition_label: read-out: Ki (KPC-2, NCF); purified KPC-2; nitrocefin reporter substrate

Illustrative cases are given below, each with its answer.
> print(dat)
                                 smiles.str                               measured.on  metric.name   data.value
1  COc1ccc2c(c1C(=O)O)OB(O)[C@@H](SC1CN(C3=NCCS3)C1)C2  purified class A, C and D enzymes (UniProt Q9F663)           Ki     < 0.1 µM
2  Nc1nnc(S[C@H]2Cc3ccc(Cl)c(C(=O)O)c3OB2O)s1  purified class A, C and D enzymes (UniProt Q9F663)           Ki     < 0.1 µM
3  O=CNc1cnc(S[C@H]2Cc3ccc(F)c(C(=O)O)c3OB2O)s1  purified class A, C and D enzymes (UniProt Q9F663)           Ki  0.1 to 1 µM
4  O=C(O)c1cccc2c1OB(O)[C@@H](Sc1nnc[nH]1)C2  purified class A, C and D enzymes (UniProt Q9F663)           Ki  0.1 to 1 µM

Turning now to a further record.
Enquiry: Identify measured Ki associated with `O=C(O)c1cccc2c1OB(O)[C@@H](OC1CNC1)C2`
Return: 0.1 to 1 µM

* * *

Answer each item with its documented pKi.
measured_on: NDM-1 (Klebsiella pneumoniae, UniProt C7C422)
test_summary: biochemical
condition_label: cleavage of tebipenem (100 uM) by NDM-1; read-out: Ki, Tebipenem
pKi: −log10 of the molar value.

Illustrative cases are given below, each with its answer.
> print(dat)
                                 smiles.str    data.value
1    Nc1nnc(S[C@H]2Cc3cccc(C(=O)O)c3OB2O)s1        > 8.00
2  CSc1ccc2c(c1C(=O)O)OB(O)[C@@H](Sc1nnc(N)s1)C2  7.00 to 8.00

// for each molecule in input: emit pKi
1. O=C(O)c1cccc2c1OB(O)[C@@H](Sc1nncs1)C2
2. COc1ccc2c(c1C(=O)O)OB(O)[C@@H](Sc1nnc(N)s1)C2
3. O=C(O)c1cccc2c1OB(O)[C@@H](Sc1nnc[nH]1)C2
4. NC(=O)CS[C@H]1Cc2cccc(C(=O)O)c2OB1O

Return:
["< 7.00", "7.00 to 8.00", "7.00 to 8.00", "< 7.00"]

The origin of these recorded values is patent US10206937B2.
